assay-target: Aβ1-42 aggregates (Homo sapiens)
Construct: preparing Aβ1-42 proteins according to the known methods
Sequence (P05067 672-713): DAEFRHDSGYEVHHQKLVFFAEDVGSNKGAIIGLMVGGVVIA
experiment: Competitive binding experiment with [125I]IMPY
test-parameters: competition with [125I]IMPY, Aβ1-42, 37° C., 3 hours
# note: exactly 40 nM is not below, so it is false; use true for Ki strictly under it

Query: Is 40 nM strictly greater than the compound's reported Ki? compound: CN(C)c1ncc(/C=N/N=C/c2cnc(N(C)C)nc2)cn1
Response: false

Query: I wonder whether CNc1ccc(/C=N/N=C/c2ccc(OCCOCCF)cc2)cc1 has Ki below 40 nM. Can you tell?
Response: true

Query: Take the compound CN(C)c1ccc(/C=N/N=C/c2ccc(OCCOCCOCCF)nc2)cc1 and say whether its Ki is less than 40 nM.
Response: true

Query: API: query returns whether the compound falls strictly under 40 nM in Ki. Query: C(=N\N=C\c1ccc(N2CCCC2)cc1)/c1ccc(N2CCCC2)cc1
Response: true

Query: Ki under 40 nM? Item: C(=N\N=C\c1ccc(N2CCCCC2)cc1)/c1ccc(N2CCCCC2)cc1
Response: true

Query: Please let me know if CNc1ccc(/C=N/N=C/c2ccc(N(C)C)cc2)cc1 shows Ki below 40 nM.
Response: true

Query: Here's an entry: CNc1ccc(/C=N/N=C/c2ccc(NC)cc2)cc1 . Is its Ki below 40 nM?
Response: false

###

experiment: Biodistribution experiment in normal mice
Assay type: in vivo, mice (ICR, male)
test-parameters: brain, 10 min after tail vein injection, normal ICR mice
Give class 1 when the value for biodistribution, brain is at least 8 % ID/g. Give class 0 when it is less.

Query: Evaluate CNc1ccc(/C=N/N=C/c2ccc(OCC[18F])cc2)cc1 [[18F]88] : biodistribution, brain at minimum 8 % ID/g?
Response: class 1

Query: Textbook exercise: given the entry CN(C)c1ccc(/C=N/N=C/c2ccc(OCCOCCOCC[18F])nc2)cc1 [[18F]93] , state whether its biodistribution, brain is greater than or equal to 8 % ID/g.
Response: class 0

Query: Item CNc1ccc(/C=N/N=C/c2ccc(OCCOCCOCC[18F])nc2)cc1 [[18F]94] with biodistribution, brain of 8 % ID/g or above?
Response: class 0

Query: Could you tell me if the measured biodistribution, brain of CNc1ccc(/C=N/N=C/c2ccc(OCCOCCOCC[18F])cc2)cc1 [[18F]92] reaches 8 % ID/g or more?
Response: class 0

Query: Please indicate if the recorded biodistribution, brain for CN(C)c1ccc(/C=N/N=C/c2ccc(OCCOCC[18F])cc2)cc1 [[18F]89] meets or exceeds 8 % ID/g.
Response: class 1

Query: Hi, just wondering whether CN(C)c1ccc(/C=N/N=C/c2ccc(OCC[18F])cc2)cc1 [[18F]87] shows biodistribution, brain of 8 % ID/g or higher.
Response: class 1

Query: Answer whether biodistribution, brain of CN(C)c1ccc(/C=N/N=C/c2ccc(OCCOCCOCC[18F])cc2)cc1 [[18F]91] is greater than or equal to 8 % ID/g.
Response: class 0

###

I'd be grateful if you could share measured biodistribution, blood for these entries.
experiment: Biodistribution experiment in normal mice
Format: in vivo, mice (ICR, male)
test-parameters: blood, 30 min after tail vein injection, normal ICR mice
Reply with just the number (in % ID/g).

Query: Requested read-out: biodistribution, blood. Entry: CNc1ccc(/C=N/N=C/c2ccc(OCCOCCOCC[18F])cc2)cc1 [[18F]92]
Response: 3.26

Query: Give its biodistribution, blood value. Item: CNc1ccc(/C=N/N=C/c2ccc(OCC[18F])cc2)cc1 [[18F]88]
Response: 3.31

Query: Entry CNc1ccc(/C=N/N=C/c2ccc(OCCOCC[18F])cc2)cc1 [[18F]90] : reported biodistribution, blood = ?
Response: 4.90

Query: Can you look up the measured biodistribution, blood of CN(C)c1ccc(/C=N/N=C/c2ccc(OCC[18F])cc2)cc1 [[18F]87] for me?
Response: 3.00

Query: biodistribution, blood for CNc1ccc(/C=N/N=C/c2ccc(OCCOCCOCC[18F])nc2)cc1 [[18F]94] ?
Response: 3.66

Query: I have this molecule here, CN(C)c1ccc(/C=N/N=C/c2ccc(OCCOCC[18F])cc2)cc1 [[18F]89] , and I need its recorded biodistribution, blood.
Response: 4.78

Query: Need biodistribution, blood of CN(C)c1ccc(/C=N/N=C/c2ccc(OCCOCCOCC[18F])nc2)cc1 [[18F]93] , thanks.
Response: 3.64

Query: For the molecule shown here, CN(C)c1ccc(/C=N/N=C/c2ccc(OCCOCCOCC[18F])cc2)cc1 [[18F]91] , give the reported biodistribution, blood.
Response: 3.83

###

assay-target: Aβ1-42 aggregates (Homo sapiens)
Construct: preparing Aβ1-42 proteins according to the known methods
experiment: Competitive binding experiment with [125I]IMPY
test-parameters: competition with [125I]IMPY, Aβ1-42, 37° C., 3 hours
Method: (1) formulating a 0.1% BSA solution with pH=7.4; (2) preparing a radioligand [125I] IMPY according to the known methods; formulating [125I] IMPY into a solution of 60000-100000 cpm/100 μL for later use; (3) formulating the compound to be tested into a 10^−5 to 10^−11 mol/L serially diluted ethanol solution; […] Activity between some compounds and Aβ1-42 aggregates was quantitatively determined by the method.
measure: Ki (nM)
Number in nM, nothing else.

Query: Suppose we examine the compound CNc1ccc(/C=N/N=C/c2ccc(OCCF)cc2)cc1 ; what Ki value has been reported?
Response: 10.4

Query: // lookup Ki for CN(C)c1ccc(/C=N/N=C/c2ccc(OCCOCCF)cc2)cc1
Response: 2.45

Query: Value lookup for Ki; key = CN(C)c1ccc(/C=N/N=C/c2ccc(OCCOCCOCCF)cc2)cc1
Response: 6.38

Query: I am curious: what Ki value has been reported for CNc1ccc(/C=N/N=C/c2ccc(O)cc2)cc1 ?
Response: 277

Query: Give the measured Ki of C(=N\N=C\c1ccc(N2CCOCC2)cc1)/c1ccc(N2CCOCC2)cc1 .
Response: 147

Query: Please look up its Ki: CN(C)c1ccc(/C=N/N=C/c2ccc(OCCF)cc2)cc1
Response: 5.17

Query: // query Ki value for entry CCN(CC)c1ccc(/C=N/N=C/c2ccc(N(CC)CC)cc2)cc1
Response: 5.1

Query: Reported Ki for CNc1ccc(/C=N/N=C/c2ccc(OCCOCCOCCF)cc2)cc1 : what is it?
Response: 46.4

Query: # query: Ki of entry CNc1ccc(/C=N/N=C/c2ccc(OCCOCCOCCF)nc2)cc1
Response: 42.9

###

experiment: Biodistribution experiment in normal mice
Type: in vivo, mice (ICR, male)
test-parameters: blood, 2 min after tail vein injection, normal ICR mice
measure: biodistribution, blood (% ID/g)
Hi! Could you send only the number? It should be in % ID/g, unit omitted.

Query: Request the reported biodistribution, blood associated with CN(C)c1ccc(/C=N/N=C/c2ccc(OCCOCCOCC[18F])cc2)cc1 [[18F]91]
Response: 3.08

Query: Query (molecule): CN(C)c1ccc(/C=N/N=C/c2ccc(OCCOCC[18F])cc2)cc1 [[18F]89] ; field requested: biodistribution, blood
Response: 2.95

Query: Field request: biodistribution, blood | item: CN(C)c1ccc(/C=N/N=C/c2ccc(OCC[18F])cc2)cc1 [[18F]87]
Response: 3.98

Query: Which biodistribution, blood value is on record for CNc1ccc(/C=N/N=C/c2ccc(OCCOCCOCC[18F])nc2)cc1 [[18F]94] ?
Response: 4.30

Query: Return reported biodistribution, blood; argument: CNc1ccc(/C=N/N=C/c2ccc(OCCOCC[18F])cc2)cc1 [[18F]90]
Response: 3.72

Query: # lookup: biodistribution, blood of CNc1ccc(/C=N/N=C/c2ccc(OCCOCCOCC[18F])cc2)cc1 [[18F]92]
Response: 3.81

Query: Quick one: biodistribution, blood of CNc1ccc(/C=N/N=C/c2ccc(OCC[18F])cc2)cc1 [[18F]88] ?
Response: 3.32

Query: Which biodistribution, blood value is on record for CN(C)c1ccc(/C=N/N=C/c2ccc(OCCOCCOCC[18F])nc2)cc1 [[18F]93] ?
Response: 3.53

###

experiment: Biodistribution experiment in normal mice
Type: in vivo, mice (ICR, male)
test-parameters: blood, 10 min after tail vein injection, normal ICR mice
measure: biodistribution, blood (% ID/g)
// note: answer is a bare numeric in % ID/g

Query: Please give the measured biodistribution, blood for this molecule: CNc1ccc(/C=N/N=C/c2ccc(OCCOCC[18F])cc2)cc1 [[18F]90]
Response: 3.85

Query: Consider the molecule shown here: CN(C)c1ccc(/C=N/N=C/c2ccc(OCCOCCOCC[18F])nc2)cc1 [[18F]93] What is its recorded biodistribution, blood?
Response: 3.16

Query: State the recorded biodistribution, blood for this entry: CNc1ccc(/C=N/N=C/c2ccc(OCCOCCOCC[18F])nc2)cc1 [[18F]94]
Response: 3.40

Query: Which value of biodistribution, blood has been reported for CNc1ccc(/C=N/N=C/c2ccc(OCC[18F])cc2)cc1 [[18F]88] in the records?
Response: 3.57

Query: Find the recorded biodistribution, blood belonging to CN(C)c1ccc(/C=N/N=C/c2ccc(OCCOCCOCC[18F])cc2)cc1 [[18F]91] and report it.
Response: 2.86

Query: Give its biodistribution, blood value. Item: CN(C)c1ccc(/C=N/N=C/c2ccc(OCC[18F])cc2)cc1 [[18F]87]
Response: 3.36

Query: # query: biodistribution, blood of entry CNc1ccc(/C=N/N=C/c2ccc(OCCOCCOCC[18F])cc2)cc1 [[18F]92]
Response: 3.06

Query: What value of measured biodistribution, blood is listed for CN(C)c1ccc(/C=N/N=C/c2ccc(OCCOCC[18F])cc2)cc1 [[18F]89] ?
Response: 3.24
